Sourced from ChEMBL document CHEMBL3272280

Assay: Dissociation constant, pKa of the compound
Assay type: physicochemical
OBSERVABLE: pKa
Answers are plain numbers.

The recorded pKa for CCCCCC(O)CCC1CCC(=O)N1CCCCCCC(=O)O (mixture of isomers) is 5.25

---

Organism: Rattus norvegicus
Test: Displacement of [3H-PGE1] from Sprague-Dawley rat kidney prostaglandin receptor after 60 mins by scintillation counting analysis
Would you mind telling me the reported log10 Activity of each entry?
// stored as log10 of Activity expressed in µgequiv

CCCCCC(O)CCC1SCC(=O)N1CCCCCCC(=O)O (mixture of isomers)
-0.41

Report log10 Activity for each item below.
1. CCCCCCCCC1CCC(=O)N1CCCCCCC(=O)O (racemic)
2. CCCCCC(O)CCC1CCC(=O)N1CCCCCCC(=O)O (mixture of isomers)
3. CCCCCCCCc1c[nH]c(=O)n1CCCCCCC(=O)O
4. CCCCCC(O)CCC1N(CCCCCCC(=O)O)C(=O)CS1(=O)=O (mixture of isomers)
5. CCCCCCCCC1C(=O)NC(=O)N1CCCCCCC(=O)O (racemic)

Reply:
1: 0.92; 2: 0.66; 3: 1.29; 4: -1.22; 5: 0.70
